# Lookup of reported IC50 keyed by entry
TEST TARGET: recombinant human KDM5B (Homo sapiens)
Sequence (Q9UGL1 374-755 limits assumed): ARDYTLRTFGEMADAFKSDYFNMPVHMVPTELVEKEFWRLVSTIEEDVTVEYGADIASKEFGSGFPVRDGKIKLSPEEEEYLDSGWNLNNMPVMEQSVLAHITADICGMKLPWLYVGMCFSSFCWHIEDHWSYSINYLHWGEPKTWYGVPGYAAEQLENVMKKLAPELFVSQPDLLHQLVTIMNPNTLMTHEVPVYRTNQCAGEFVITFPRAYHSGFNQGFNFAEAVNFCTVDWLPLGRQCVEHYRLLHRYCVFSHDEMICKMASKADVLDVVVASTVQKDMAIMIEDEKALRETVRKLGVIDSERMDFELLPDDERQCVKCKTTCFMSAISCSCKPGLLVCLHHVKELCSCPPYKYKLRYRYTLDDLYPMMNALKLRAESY
TEST DESCRIPTION: 14CO2 capture enzymatic assay (decarboxylation of [1-14C] αKG), KDM5B
SETTINGS: 10 μM [1-14C] αKG, 90 μM non-labeled αKG, 50 μM peptide substrate, 37° C., 1 hour, final 1% DMSO
Your answer should be a plain number; it is taken to be in nM.

Below, 3 compounds whose answers are already recorded.
COc1ccc(-c2cc(C#N)c(O)c(C(=O)CCC(=O)O)n2)c(Cl)c1 [Example 81] :: 340
N#Cc1cc(Cc2cccc3ccccc23)nc(C(=O)CCC(=O)O)c1O [Example 34] :: 60
Cc1cc(C)c(Cc2cc(C#N)c(O)c(C(=O)CCC(=O)O)n2)c(C)c1 [Example 124] :: 160

Q: I would be grateful if you could share the reported IC50 for N#Cc1cc(NC(=O)c2c(Cl)cccc2Cl)nc(C(=O)CCC(=O)O)c1O [Example 128] .
A: 380

Q: For the compound shown here, N#Cc1cc(-c2cccc(Cl)c2)cc(C(=O)CCC(=O)O)c1O [Example 120] , give the reported IC50.
A: 150

Q: Fill blank: measured IC50 of the compound Cc1cc(C#N)cc(C)c1Cc1cc(C#N)c(O)c(C(=O)CCC(=O)O)n1 [Example 153] is ____.
A: 320

Q: Which measured IC50 value corresponds to N#Cc1cc(Cc2ccccc2)nc(C(=O)CCC(=O)O)c1O [Example 10] ?
A: 160

Q: What value of IC50 has been reported for the following compound? Cc1ccc(-c2cc(C#N)c(O)c(C(=O)CCC(=O)O)n2)c2ccccc12 [Example 113]
A: 230

Q: Entry N#Cc1ccc(Cc2cc(C#N)c(O)c(C(=O)CCC(=O)O)n2)cc1 [Example 44] has what IC50?
A: 230

* * *

Listed compounds paired with reported IC50
TEST TARGET: recombinant human KDM4A (Homo sapiens, UniProt O75164)
TEST DESCRIPTION: 14CO2 capture enzymatic assay (decarboxylation of [1-14C] αKG), KDM4A
SETTINGS: 10 μM [1-14C] αKG, 90 μM non-labeled αKG, 50 μM peptide substrate, 37° C., 1 hour, final 1% DMSO

Below: 4 compounds and their reported IC50.
N#Cc1cc(Cc2ccc(C(F)(F)F)cc2)nc(C(=O)CCC(=O)O)c1O :: > 40 µM
N#Cc1cc(-c2cccc(Cl)c2)nc(C(=O)CCC(=O)O)c1O :: ≥ 40 µM
CSc1cc(C#N)c(O)c(C(=O)CCC(=O)O)n1 :: 71 µM
N#Cc1cc(Cc2ccccc2Cc2ccccc2)nc(C(=O)CCC(=O)O)c1O :: 39 µM

Q: Data request, read-out IC50, for N#Cc1cc(-c2ccc(C(F)(F)F)cc2Cl)nc(C(=O)CCC(=O)O)c1O
A: > 40 µM

Q: Fill in: IC50 of COc1ccc(-c2cc(C#N)c(O)c(C(=O)CCC(=O)O)n2)cc1 is ___
A: > 40 µM

Q: Entry N#Cc1cc(-c2ccccc2F)nc(C(=O)CCC(=O)O)c1O : reported IC50 = ?
A: > 40 µM

Q: Which value of IC50 has been reported for N#Cc1cc(Cc2c(F)cccc2Cl)nc(C(=O)CCC(=O)O)c1O in the records?
A: 17 µM

Q: Look up IC50 for this compound: N#Cc1cc(Cc2c(Cl)cccc2Cl)cc(C(=O)CCC(=O)O)c1O
A: > 40 µM

* * *

TEST TARGET: recombinant human KDM5B (Homo sapiens)
Sequence (Q9UGL1 374-755 limits assumed): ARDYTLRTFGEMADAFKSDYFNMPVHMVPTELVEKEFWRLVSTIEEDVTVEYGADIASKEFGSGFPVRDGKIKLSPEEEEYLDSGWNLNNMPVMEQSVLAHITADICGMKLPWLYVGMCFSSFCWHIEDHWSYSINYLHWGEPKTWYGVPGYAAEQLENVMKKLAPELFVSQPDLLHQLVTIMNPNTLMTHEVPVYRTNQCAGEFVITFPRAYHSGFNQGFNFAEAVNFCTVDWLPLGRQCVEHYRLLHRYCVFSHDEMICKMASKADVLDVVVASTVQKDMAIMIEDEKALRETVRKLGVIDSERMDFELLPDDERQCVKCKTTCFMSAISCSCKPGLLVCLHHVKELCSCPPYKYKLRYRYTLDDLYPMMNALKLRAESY
TEST DESCRIPTION: 14CO2 capture enzymatic assay (decarboxylation of [1-14C] αKG), KDM5B
SETTINGS: 10 μM [1-14C] αKG, 90 μM non-labeled αKG, 50 μM peptide substrate, 37° C., 1 hour, final 1% DMSO
Please use the following IC50 ranges when assigning a class: lo = under 200 nM, med = from 200 nM up to 300 nM, hi = 300 nM and over

Example entries begin here.
Cc1c(Cl)cccc1-c1cc(C#N)c(O)c(C(=O)CCC(=O)O)n1 [Example 89] :: hi
N#Cc1cc(Cc2ccc(-c3ccccc3)cc2)nc(C(=O)CCC(=O)O)c1O [Example 50] :: hi
N#Cc1cc(-c2cccc3ccccc23)nc(C(=O)CCC(=O)O)c1O [Example 68] :: med
N#Cc1cc(Cc2ccccc2)cc(C(=O)CCC(=O)O)c1O [Example 117] :: med
Cc1cc(C#N)ccc1-c1cc(C#N)c(O)c(C(=O)CCC(=O)O)n1 [Example 99] :: med

Kindly consider the entry below.
Q: Sort into band: Cc1ccc(-c2cc(C#N)c(O)c(C(=O)CCC(=O)O)n2)cc1 [Example 73]
A: lo

* * *

TEST TARGET: recombinant human KDM4A (Homo sapiens, UniProt O75164)
Sequence (O75164 1-359 limits assumed): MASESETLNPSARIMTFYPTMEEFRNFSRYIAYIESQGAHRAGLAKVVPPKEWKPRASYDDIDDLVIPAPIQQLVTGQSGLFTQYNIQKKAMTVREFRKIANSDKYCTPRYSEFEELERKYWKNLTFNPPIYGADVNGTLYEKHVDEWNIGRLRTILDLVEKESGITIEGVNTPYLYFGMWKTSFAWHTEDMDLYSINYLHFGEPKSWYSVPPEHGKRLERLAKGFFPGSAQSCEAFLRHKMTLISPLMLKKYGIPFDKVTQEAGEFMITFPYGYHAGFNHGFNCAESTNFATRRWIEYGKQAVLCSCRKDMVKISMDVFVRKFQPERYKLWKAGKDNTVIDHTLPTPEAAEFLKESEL
TEST DESCRIPTION: 14CO2 capture enzymatic assay (decarboxylation of [1-14C] αKG), KDM4A
SETTINGS: 10 μM [1-14C] αKG, 90 μM non-labeled αKG, 50 μM peptide substrate, 37° C., 1 hour, final 1% DMSO
Collected IC50 values appear next to each entry.

Look over these answered cases.
Cc1ccc(-c2cc(C#N)c(O)c(C(=O)CCC(=O)O)n2)c2ccccc12 :: > 40 µM
Cc1ccc(Cc2cc(C#N)c(O)c(C(=O)CCC(=O)O)n2)cc1 :: > 40 µM
N#Cc1cc(C2CCCCC2)nc(C(=O)CCC(=O)O)c1O :: > 40 µM
Cc1cccc(C)c1Cc1cc(C(=O)CCC(=O)O)c(O)c(C#N)n1 :: > 40 µM
COc1ccc(Cl)c(-c2cc(C#N)c(O)c(C(=O)CCC(=O)O)n2)c1 :: > 40 µM

Q: // lookup IC50 for N#Cc1cc(-c2ccc(F)c3ccccc23)nc(C(=O)CCC(=O)O)c1O
A: > 40 µM

* * *

TEST TARGET: recombinant human KDM5B (Homo sapiens)
TEST DESCRIPTION: 14CO2 capture enzymatic assay (decarboxylation of [1-14C] αKG), KDM5B
SETTINGS: 10 μM [1-14C] αKG, 90 μM non-labeled αKG, 50 μM peptide substrate, 37° C., 1 hour, final 1% DMSO
PROPERTY NAME: IC50 (µM)
Response body: numeric value in µM, unit text excluded.

Cc1cc(F)ccc1-c1cc(C#N)c(O)c(C(=O)CCC(=O)O)n1 :: 0.45
N#Cc1cc(Cc2c(Cl)cccc2C(F)(F)F)nc(C(=O)CCC(=O)O)c1O :: 0.33
N#Cc1nc(Cc2ccccc2)cc(C(=O)CCC(=O)O)c1O :: 2
Cc1ccc(Oc2cc(C#N)c(O)c(C(=O)CCC(=O)O)c2)cc1 :: 0.56

API: the following record is the query input.
Q: If you can, please state the reported IC50 value of N#Cc1cc(Cc2cc(Cl)cc(Cl)c2)nc(C(=O)CCC(=O)O)c1O .
A: 0.23
